biological target: UniProtKB P28222; experiment: [3H]-GR125743 competitive radioligand binding, HTR1B membranes from HEK293T stable transfectants; conditions: [3H]-GR125743, human HTR1B
VALUE_KIND: pKi
In textbook form, pKi equals minus log to base ten of the concentration in mol/L.

Look up and report measured pKi for this entry: Nc1ccccc1C(=O)CC(N)C(=O)O (stereo not shown)
4.76

----------
target: murine HTR1B receptor (Mus musculus, UniProt P28334); construct: The full-length murine or human serotonin receptor 1b (Htr1b); Myc-DDK; isolated membranes; assay: [3H]-Kyn binding to Htr1b-overexpressing HEK293T membranes with increasing SB9; conditions: competition of [3H]-Kyn (50 μM), mouse HTR1B
Sequence (P28334 whole entry): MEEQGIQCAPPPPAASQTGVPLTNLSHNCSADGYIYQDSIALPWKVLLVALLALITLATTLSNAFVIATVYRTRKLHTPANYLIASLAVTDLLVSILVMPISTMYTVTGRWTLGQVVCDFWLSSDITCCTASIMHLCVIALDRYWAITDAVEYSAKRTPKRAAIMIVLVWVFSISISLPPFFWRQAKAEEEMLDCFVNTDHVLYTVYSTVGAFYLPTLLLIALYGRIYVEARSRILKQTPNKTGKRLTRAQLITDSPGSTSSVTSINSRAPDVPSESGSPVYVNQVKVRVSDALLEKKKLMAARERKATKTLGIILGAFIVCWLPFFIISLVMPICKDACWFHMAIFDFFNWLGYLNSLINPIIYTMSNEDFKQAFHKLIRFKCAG
VALUE_KIND: IC50 (mM)
Give your result in mM as a bare value.

Look up and report measured IC50 for this entry: Cc1nc(-c2ccc(-c3ccc(C(=O)N4CCc5cc6c(cc54)C4(CCN(C)CC4)CO6)cc3)c(C)c2)no1
7.72

----------
biological target: mouse HTR1B (Mus musculus); construct: The full-length murine or human serotonin receptor 1b (Htr1b); Myc-DDK; isolated membranes; assay: [3H]-5-HT competition binding, membranes of HEK293T cells overexpressing murine HTR1B; details: competition of 25 nM [3H]-5-HT
Sequence (P28334 whole entry): as above
For each entry below, report its IC50 value.
Give your result in µM as a bare value.

Look up and report measured IC50 for this entry: NCCc1c[nH]c2ccc(O)cc12 [5-HT, 5-hydroxytryptamine]
0.0811

Look up and report measured IC50 for this entry: Cc1nc(-c2ccc(-c3ccc(C(=O)N4CCc5cc6c(cc54)C4(CCN(C)CC4)CO6)cc3)c(C)c2)no1 [SB224289]
1.27

Look up and report measured IC50 for this entry: Nc1ccccc1C(=O)CC(N)C(=O)O (stereo not drawn) [Kyn, kynurenine]
54.1

----------
VALUE_KIND: pIC50
In textbook form, pIC50 equals minus log to base ten of the concentration in mol/L.

State the measured pIC50 (human HTR1B (Homo sapiens, UniProt P28222)) of Nc1ccccc1C(=O)CC(N)C(=O)O (stereo not shown)
4.61

----------
molecular target: 5-HT1B receptor (Homo sapiens, UniProt P28222); assay: GloSensor Gi/o-mediated cAMP inhibition assay in HEK293T cells; conditions: cAMP Gi agonist, human HTR1B
Sequence (P28222 whole entry): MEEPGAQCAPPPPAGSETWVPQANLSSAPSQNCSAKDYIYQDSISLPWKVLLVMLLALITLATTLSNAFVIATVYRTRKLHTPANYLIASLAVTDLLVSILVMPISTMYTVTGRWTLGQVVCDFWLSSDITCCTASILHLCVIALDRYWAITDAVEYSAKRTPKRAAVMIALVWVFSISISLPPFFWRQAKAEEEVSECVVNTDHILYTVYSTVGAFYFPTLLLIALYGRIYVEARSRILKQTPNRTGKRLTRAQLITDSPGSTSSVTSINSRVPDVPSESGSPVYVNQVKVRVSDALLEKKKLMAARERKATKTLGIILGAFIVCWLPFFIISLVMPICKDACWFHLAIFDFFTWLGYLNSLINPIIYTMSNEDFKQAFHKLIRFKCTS
VALUE_KIND: EC50 (nM)
Give your result in nM as a bare value.

Look up and report measured EC50 for this entry: Nc1ccccc1C(=O)CC(N)C(=O)O (stereo not shown)
772

// provenance: patent US20240350669A1
